Provide the reported Ki of each item.
# protocol-text: Binding affinity value against thrombin
Give bare numbers, in µM.

Find the recorded Ki belonging to N=C(N)c1ccc2cc(C(=O)Nc3ccccc3)cc(Br)c2c1 and report it.
2.66

Please look up its Ki: N=C(N)c1ccc2cc(C(=O)Nc3ccccc3)ccc2c1
5.64

Items follow; give Ki for each.
1. N=C(N)c1ccc2cc(C3CC3c3ccc4c(c3)C(C3CCCCC3)=NCC4)ccc2c1 (stereo not given)
2. CC(C)C1c2cc(C3CC3c3ccc4cc(C(=N)N)ccc4c3)ccc2CCN1C (stereo not given)
3. N=C(N)c1ccc2cc(C3CC3c3ccccc3)cc(Nc3ncccn3)c2c1 (stereo not given)
4. CC(C)C1=NCCc2ccc(C3CC3c3ccc4cc(C(=N)N)ccc4c3)cc21 (stereo not given)
5. N=C(N)c1ccc2cc(C3CC3c3ccc4c(c3)C(c3ccccc3)=NCC4)ccc2c1 (stereo not given)
6. CC(C)Oc1cccc(C2CC2c2ccc3cc(C(=N)N)ccc3c2)c1 (stereo not given)
7. N=C(N)c1ccc2cc(/C=C/c3ccccc3)cc(-c3ccoc3)c2c1
8. N=C(N)c1ccc2cc(C(=O)Nc3ccccc3)cc(Nc3ncccn3)c2c1

1: 1.14; 2: 1.8; 3: 0.048; 4: 2.14; 5: 2.12; 6: 1.1; 7: 0.237; 8: 0.17

====

# protocol-text: Volume distribution value in sprague dawley rat was determined at a dosage of 3 mg/kg
# Assay type: ADME, organism-based
# Parameters: dose 3 mg/kg
# condition-label: in vivo
Assignment: determine reported Vd for the given compounds.
Numbers only, in L/kg.

See these solved cases before continuing.
Param item = N=C(N)c1ccc2cc(C(=O)Nc3ccccc3)cc(Nc3ncccn3)c2c1 ; retrieve measured Vd.
37.1

Can you share its Vd? I mean this compound: N=C(N)c1ccc2cc(CCc3ccccc3)cc(Br)c2c1
18

Look at this compound and give its reported Vd. N=C(N)c1ccc2cc(C3CC3c3ccccc3)cc(Br)c2c1 (stereo not drawn)
14.3

Record Vd for all entries; do not skip any.
1. CC(C)C1c2cc(C3CC3c3ccc4cc(C(=N)N)ccc4c3)ccc2CCN1C (stereo not drawn)
2. N=C(N)c1ccc2cc(CCc3ccccc3)cc(Nc3ncccn3)c2c1

10.3
13.6

Batch request: Vd per item, same order as input.
1. CC1c2cc(C3CC3c3ccc4cc(C(=N)N)ccc4c3)ccc2CCN1C (stereo not drawn)
2. N=C(N)c1ccc2cc(C(=O)Nc3ccccc3)cc(Br)c2c1
3. N=C(N)c1ccc2cc(C3CC3c3ccccc3)cc(-c3ccoc3)c2c1 (stereo not drawn)

2.9
18.7
2.4

Take each entry in turn and give its Vd.
1. N=C(N)c1ccc2cc(C3CC3c3ccc4c(c3)C(C3CCCCC3)=NCC4)ccc2c1 (stereo not drawn)
2. N=C(N)c1ccc2cc(CCc3ccccc3)cc(-c3ccoc3)c2c1
3. N=C(N)c1ccc2cc(C3CC3c3ccccc3)ccc2c1 (stereo not drawn)
4. CC(C)C1=NCCc2ccc(C3CC3c3ccc4cc(C(=N)N)ccc4c3)cc21 (stereo not drawn)
5. CN1CCc2ccc(C3CC3c3ccc4cc(C(=N)N)ccc4c3)cc2C1C1CCCCC1 (stereo not drawn)

4.5
1.53
23
18.6
18.7

List Vd for every entry below, keeping the order given.
1. N=C(N)c1ccc2cc(CCc3ccccc3)ccc2c1
2. N=C(N)c1ccc2cc(C(=O)Nc3ccccc3)ccc2c1
3. CC(C)Oc1cccc(C2CC2c2ccc3cc(C(=N)N)ccc3c2)c1 (stereo not drawn)

1. 9.8
2. 8.5
3. 19.3

The following compounds each have a reported value; give each one's Vd.
1. N=C(N)c1ccc2cc(C(=O)Nc3ccccc3)cc(-c3ccoc3)c2c1
2. N=C(N)c1ccc2cc(C3CC3c3ccccc3)cc(Nc3ncccn3)c2c1 (stereo not drawn)

1. 21.7
2. 10
